- SYSTEM UNDER TEST: Cytochrome P450 2C19 (Homo sapiens) (UniProt P33261)
- Sequence (P33261 whole entry, looked up): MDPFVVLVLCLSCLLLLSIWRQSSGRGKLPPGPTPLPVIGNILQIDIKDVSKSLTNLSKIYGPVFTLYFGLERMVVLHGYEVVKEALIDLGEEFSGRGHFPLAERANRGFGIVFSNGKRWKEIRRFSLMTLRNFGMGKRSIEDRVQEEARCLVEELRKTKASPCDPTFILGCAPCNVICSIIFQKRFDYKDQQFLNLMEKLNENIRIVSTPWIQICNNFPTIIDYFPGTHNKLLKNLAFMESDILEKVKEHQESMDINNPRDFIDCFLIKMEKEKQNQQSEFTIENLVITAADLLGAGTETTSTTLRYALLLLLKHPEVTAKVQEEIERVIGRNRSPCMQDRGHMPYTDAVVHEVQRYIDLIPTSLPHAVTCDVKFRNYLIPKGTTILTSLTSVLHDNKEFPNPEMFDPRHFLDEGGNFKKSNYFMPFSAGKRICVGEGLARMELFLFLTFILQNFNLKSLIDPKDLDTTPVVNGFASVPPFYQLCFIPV
- PROTOCOL NOTES: Cytochrome panel assay with activity outcomes
- SETTINGS: recombinant CYP, pro-luciferin dealkylation, luminescence, p450-cyp2c19; series mostly up to 57.1 µM
The whole screen tested about 16,000 compounds, of which about 5,800 (36%) were called active. Inconclusive results (about 23%) are left out. Calls come from the whole dose curve; as a rule, active = well fitted curve in the direction sought with a large enough effect; inconclusive = small, poorly fitted or top-dose-only effect, or effect the other way; inactive = no such curve, though single readings can be large or run the other way. The list shows a part of the results.
Please state which outcome applies, choosing from 1.0 (active), 0.0 (inactive)

IN: # fetch the recorded call for CCOC(=O)N1CCN(C(=O)CNCc2cccs2)CC1 here
OUT: 0.0

IN: Which result was noted for this compound in the test: CCOC(=O)N1CCN(C(=O)CNS(=O)(=O)c2cccs2)CC1
OUT: 1.0

IN: Called result for COc1ccc(-n2c(=O)c(C)nc3cnc(N4CCNCC4)nc32)cc1
OUT: 0.0

====

- SYSTEM UNDER TEST: Cytochrome P450 2C19 (Homo sapiens) (UniProt P33261)
- PROTOCOL NOTES: Cytochrome panel assay with activity outcomes
- SETTINGS: recombinant CYP, pro-luciferin dealkylation, luminescence, p450-cyp2c19; series mostly up to 57.1 µM
- Experimental: The P450 gene superfamily is involved in the metabolism and clearance of xenobiotics. This assay used various human CYP P450 isozymes to measure the dealkylation of various pro-luciferin substrates to luciferin. The luciferin is then measured by luminescence after the addition of a luciferase detection reagent. […] Inhibitors and some substrates limit the production of luciferin, and decrease measured luminescence. […] 8, Detection, 1 sec, ViewLux luminescent read […]
The campaign covered roughly 16,000 compounds. About 5,800 (36%) were called active. Roughly 23% stayed inconclusive and do not appear here. Calls come from the whole dose curve; as a rule, active = well fitted curve in the direction sought with a large enough effect; inconclusive = small, poorly fitted or top-dose-only effect, or effect the other way; inactive = no such curve, though single readings can be large or run the other way. This is one part of the list.
Reply using exactly one outcome from active, inactive

Field: example entries. Status: answers known.
INSERT INTO measurements (compound, qualitative_label) VALUES
  ('COc1cc(C(=O)N2CCN(C(=O)c3ccccc3)CC2)cc(OC)c1OC', 'inactive'),
  ('Cc1cc([N+](=O)[O-])ccc1-c1ccc(C2Nc3ccccc3C(=O)N2O)o1 (stereo unspecified)', 'active'),
  ('O=C(Nc1ccccc1N1CCN(C(=O)c2ccccc2)CC1)c1cc(Br)ccc1Cl', 'active'),
  ('Cc1snc(SCC(=O)N/N=C(\N)COc2cccc(C(F)(F)F)c2)c1C#N', 'active'),
  ('CCCCc1n[nH]c2c1/C(=N/O)CC(c1ccccc1)C2 (stereo unspecified)', 'active');

IN: Tell me the assay call for O=C(Nc1ccccc1N1CCOCC1)c1ccc([N+](=O)[O-])cc1 please.
OUT: inactive

IN: Lab log entry: CCOc1ccc(C(CC(=O)O)NC(=O)COc2ccccc2)cc1 (stereo unspecified) — outcome as called in the assay?
OUT: inactive

IN: For this compound, state the assay outcome: CCOC(=O)CC(NC(=O)c1ccco1)c1ccc(OC)cc1 (stereo unspecified)
OUT: active

IN: # outcome recorded in this test, key = CCOC(=O)CC(NC(=O)c1ccc(C)cc1)c1ccc(C)cc1 (stereo unspecified)
OUT: active

IN: Name the outcome recorded for Cc1ccccc1OCC(=O)Nc1ccc(N2CCN(C(=O)C(C)C)CC2)c(Cl)c1 in the assay.
OUT: active

IN: Which outcome did this test record for the compound COc1cc2c(C(=O)N3CCN(C)CC3)c(C)n(-c3ccccc3)c2cc1Br ?
OUT: active

====

- SYSTEM UNDER TEST: Cytochrome P450 2C19 (Homo sapiens)
- PROTOCOL NOTES: Cytochrome panel assay with activity outcomes
- SETTINGS: recombinant CYP, pro-luciferin dealkylation, luminescence, p450-cyp2c19; series mostly up to 57.1 µM
The whole screen tested about 16,000 compounds, of which about 5,800 (36%) were called active. Another 23% or so got no clear call; they are omitted. Calls follow the shape of the dose curve; as a rule, active = well fitted curve in the direction sought with a large enough effect; inconclusive = small, poorly fitted or top-dose-only effect, or effect the other way; inactive = no such curve, though single readings can be large or run the other way. Some of the results follow.
Pick one and only one: active, inactive

INSERT INTO measurements (molecule, system_under_test, qualitative_label) VALUES
  ('O=S(=O)(c1ccccc1)N1CCC2(CCN(Cc3ccncc3)CC2)CC1', 'Cytochrome P450 2C19 (Homo sapiens)', 'inactive');

IN: Assay result, entry O=S(=O)(c1ccccc1)N1CCC[C@@]2(CCN(Cc3nccs3)C2)C1 — outcome?
OUT: active

IN: GET /call?item= O=S(=O)(c1ccccc1)N1CCC2(CC1)CN(Cc1nccs1)C2 returns the recorded outcome of this test.
OUT: inactive

IN: Each compound tested received a call. Report the one for O=S(=O)(c1ccccc1)N1CCC2(CCN(Cc3nccs3)CC2)CC1 .
OUT: inactive

IN: // param item: Cn1cccc1C(=O)N1CCC2(CCCN(Cc3ccc(C#N)cc3)C2)CC1 ; yields the recorded call
OUT: inactive

IN: Fill in: this test's call for Cc1cc(Cl)ccc1Oc1ncc(-c2ccc(Cl)cc2)cn1 is ___
OUT: active

====

- SYSTEM UNDER TEST: Cytochrome P450 2C19 (Homo sapiens) (UniProt P33261)
- PROTOCOL NOTES: Cytochrome panel assay with activity outcomes
- SETTINGS: recombinant CYP, pro-luciferin dealkylation, luminescence, p450-cyp2c19; series mostly up to 57.1 µM
The campaign covered roughly 16,000 compounds. About 5,800 (36%) were called active. Inconclusive results (about 23%) are left out. Calls follow the shape of the dose curve; as a rule, active = well fitted curve in the direction sought with a large enough effect; inconclusive = small, poorly fitted or top-dose-only effect, or effect the other way; inactive = no such curve, though single readings can be large or run the other way. Some of the results follow.
Choose one outcome from this list and give only that: active, inactive

Here's what some known entries look like.
INSERT INTO assay_data (compound, system_under_test, qualitative_label) VALUES
  ('O=C(/C=C/c1ccccc1)N1CCN(Cc2nc3ccccc3c(=O)[nH]2)CC1', 'Cytochrome P450 2C19 (Homo sapiens) (UniProt P33261)', 'active'),
  ('Cc1[nH]n2c(=O)c(C#N)c(-c3ccccc3)nc2c1-c1ccccc1', 'Cytochrome P450 2C19 (Homo sapiens) (UniProt P33261)', 'inactive'),
  ('Cc1nc2c(c(-c3ccccc3)c1C#N)C(=O)c1ccccc1-2', 'Cytochrome P450 2C19 (Homo sapiens) (UniProt P33261)', 'active'),
  ('C=CCN(CC=C)C(=S)Nc1ccccc1', 'Cytochrome P450 2C19 (Homo sapiens) (UniProt P33261)', 'inactive'),
  ('CCc1ccc(CSc2nccn2-c2ccccc2)cc1', 'Cytochrome P450 2C19 (Homo sapiens) (UniProt P33261)', 'active');

IN: Outcome logged for COc1ccc2c(c1)C(=NN)c1cc(OC)ccc1-2 in this assay:
OUT: active

IN: Could you check what this test reported for COc1ccc(OC)c(C(=O)CN2C(=O)NC(C)(c3ccccc3)C2=O)c1 (stereo unspecified) ?
OUT: active

IN: Test call, this compound: Cc1ccc(C)c(Cn2c(C(=O)OC(C)C)cc3c2ccn3C)c1
OUT: active

====

- SYSTEM UNDER TEST: Cytochrome P450 2C19 (Homo sapiens)
- PROTOCOL NOTES: Cytochrome panel assay with activity outcomes
- SETTINGS: recombinant CYP, pro-luciferin dealkylation, luminescence, p450-cyp2c19; series mostly up to 57.1 µM
Among all 16,000 compounds or so, about 5,800 (36%) were called active. About 23% were inconclusive and are not listed. The call rests on the fitted dose curve; in most records, active means well fitted curve in the direction sought with a large enough effect; inconclusive means small, poorly fitted or top-dose-only effect, or effect the other way; inactive means no such curve, though single readings can be large or run the other way. Some of the results follow.
# output must be one of true for active, false for inactive

Solved cases below.
INSERT INTO assay_data (compound, system_under_test, qualitative_label) VALUES
  ('N#Cc1c(-c2ccc3c(c2)OCO3)ccn2nc(-c3cccc(C(F)(F)F)c3)nc12', 'Cytochrome P450 2C19 (Homo sapiens)', 'true'),
  ('O=C(Cc1ccc2c(c1)CCCC2)Nc1ccccc1Br', 'Cytochrome P450 2C19 (Homo sapiens)', 'true'),
  ('COc1ccc(/C=C/C(=O)Oc2cccc(/C=N/NC(=O)COc3c(C)cccc3C)c2)cc1', 'Cytochrome P450 2C19 (Homo sapiens)', 'false'),
  ('Oc1ccc2ccccc2c1CN(Cc1c(O)ccc2ccccc12)C1CCCCC1', 'Cytochrome P450 2C19 (Homo sapiens)', 'true'),
  ('COc1ccc(OC)c(S(=O)(=O)N2CCC(C(=O)Nc3ccc(C)c(C)c3)CC2)c1', 'Cytochrome P450 2C19 (Homo sapiens)', 'true'),
  ('CCC/C=C(\CCC)C(NS(=O)(=O)c1cccs1)c1ccc(C(=O)OC)cc1 (stereo unspecified)', 'Cytochrome P450 2C19 (Homo sapiens)', 'true');

IN: Identify the outcome logged in this assay for the compound shown: CCCS(=O)(=O)N1CCCC(C(=O)NCCCOC(C)C)C1 (stereo unspecified)
OUT: false

IN: // param item: CCOc1cc(/C=N/NC(=O)CNc2cccc(C)c2)ccc1OC(=O)c1ccccc1 ; yields the recorded call
OUT: true

IN: Please share the test call associated with CC(C)(C)c1ccc(O)c(CN(Cc2cc(C(C)(C)C)ccc2O)C2CCCCC2)c1 .
OUT: true

IN: Could you kindly confirm the outcome this assay logged for O=C(c1csnn1)N1CCC2(CC1)CN(c1ccccn1)C2 ?
OUT: false

IN: For COc1ccc(OC)c(S(=O)(=O)N2CCC(C(=O)NCCc3ccccc3)CC2)c1 , what call appears in the results of this test?
OUT: false

IN: Each compound tested received a call. Report the one for CCOc1cc(S(=O)(=O)N(Cc2ccccc2)Cc2ccccc2)c(OCC)cc1-n1cnnn1 .
OUT: true

IN: Recorded call for c1ccc(N2CCN(CCCOc3ccc4c(c3)OCO4)CC2)cc1 ?
OUT: true
